- Test system: HepG2
- Assay Procedure: Cytotoxicity against human HepG2 cells assessed as cell growth inhibition at 3.125 to 100 uM incubated for 72 hrs and measured after 2 hrs by microplate reader based WST-1 assay relative to control
- Format: functional

Compound: COc1ccc(-c2cc(COC(c3cccs3)c3cc4ccccc4nc3Cl)on2)cc1 (configuration not stated)
Units: %
Relation Symbol: =
growth inhibition (GI): 17.93
--
Compound: Clc1nc2ccccc2cc1C(OCc1ccc(Br)cc1)c1cccs1 (configuration not stated)
Units: %
Relation Symbol: <
growth inhibition (GI): 10
--
Compound: Fc1ccc(COC(c2cccs2)c2cc3ccccc3nc2Cl)cc1 (configuration not stated)
Units: %
Relation Symbol: =
growth inhibition (GI): 30.53
--
Compound: Cc1cc(C)cc(-c2cc(COC(c3cccs3)c3cc4ccccc4nc3Cl)on2)c1 (configuration not stated)
Units: %
Relation Symbol: <
growth inhibition (GI): 10
--
Compound: Oc1ccc(-c2cc(COC(c3cccs3)c3cc4ccccc4nc3Cl)on2)cc1 (configuration not stated)
Units: %
Relation Symbol: =
growth inhibition (GI): 64.51
--
Compound: Clc1ccc(-n2cc(COC(c3cccs3)c3cc4ccccc4nc3Cl)nn2)cc1 (configuration not stated)
Units: %
Relation Symbol: =
growth inhibition (GI): 8.39
--
Compound: Cc1cc(C)c(COC(c2cccs2)c2cc3ccccc3nc2Cl)c(C)c1 (configuration not stated)
Units: %
Relation Symbol: =
growth inhibition (GI): 24.76
--
Compound: FC(F)(F)c1cccc(COC(c2cccs2)c2cc3ccccc3nc2Cl)c1 (configuration not stated)
Units: %
Relation Symbol: <
growth inhibition (GI): 10
--
Compound: Clc1nc2ccccc2cc1C(OCc1ccccc1)c1cccs1 (configuration not stated)
Units: %
Relation Symbol: <
growth inhibition (GI): 10
--
Compound: COc1ccc(-c2cc(COC(c3cccs3)c3cc4ccccc4nc3Cl)on2)cc1OC (configuration not stated)
Units: %
Relation Symbol: <
growth inhibition (GI): 10
--
Compound: Cc1ccc(-c2cc(COC(c3cccs3)c3cc4ccccc4nc3Cl)on2)cc1 (configuration not stated)
Units: %
Relation Symbol: =
growth inhibition (GI): 31.77
--
Compound: COc1cc(-c2cc(COC(c3cccs3)c3cc4ccccc4nc3Cl)on2)cc(OC)c1OC (configuration not stated)
Units: %
Relation Symbol: =
growth inhibition (GI): 14.57
